Would you mind telling me the reported pIC50 of each entry?
# System: T24
# experiment_summary: antiproliferation assay, MTT method
# Format: cell-based, human
# cond: read-out: IC50 (concentration required for 50% proliferation inhibitory rate)
Numbers only, as −log10 of the molar value.

Below: 2 molecules and their reported pIC50.
OC[C@H]1O[C@@H](O[C@H]2[C@H]3OC[C@@H]2O[C@@H](O[C@H]2[C@@H](O)[C@@H](CO)O[C@@H](O[C@H]4[C@H]5OC[C@@H]4OC(O)[C@H]5O)[C@@H]2O)[C@H]3O)[C@H](O)[C@@H](O)[C@H]1O (stereo partly drawn) = 3.40
OC[C@H]1O[C@@H](O[C@H]2[C@H]3OC[C@@H]2OC(O)[C@H]3O)[C@H](O)[C@@H](O)[C@H]1O (mixture of isomers) = 3.45

Kindly consider the entry below.
q: Item under review: OC[C@H]1O[C@@H](O[C@H]2[C@H]3OC[C@@H]2O[C@@H](O[C@H]2[C@@H](O)[C@@H](CO)O[C@@H](O[C@H]4[C@H]5OC[C@@H]4O[C@@H](O[C@H]4[C@@H](O)[C@@H](CO)O[C@@H](O[C@H]6[C@H]7OC[C@@H]6OC(O)[C@H]7O)[C@@H]4O)[C@H]5O)[C@@H]2O)[C@H]3O)[C@H](O)[C@@H](O)[C@H]1O (mixture of isomers) . Reported pIC50?
a: 3.44
